Items are presented alongside their recorded IC50.
- experimentalSystem: HBX2 HIV integrase (Human immunodeficiency virus type 1 group M subtype B)
- Construct: contains the cDNA encoding the HBX2 HIV integrase; His tag (N, cleaved yes); made in house; host or cells: Escherichia coli BL21 (DE3)
- protocolSummary: 3' LTR processing assay
- Type: biochemical

>  <structureSmilesString>
CC(=O)c1ccc(O)c2nc(/C=C/c3cc(O)c(O)c([N+](=O)[O-])c3)ccc12

>  <IC50 / nM>
225

$$$$
>  <structureSmilesString>
CC(=O)c1ccc(O)c2nc(/C=C/c3ccc(C(=O)O)cc3[N+](=O)[O-])ccc12

>  <IC50 / nM>
2300

$$$$
>  <structureSmilesString>
CC(=O)c1ccc(O)c2nc(/C=C/c3cc(O)c(O)c(O)c3)ccc12

>  <IC50 / nM>
510

$$$$
>  <structureSmilesString>
COc1cc(/C=C/c2ccc3c(C(C)=O)ccc(O)c3n2)cc([N+](=O)[O-])c1O

>  <IC50 / nM>
724

$$$$

###

Items are presented alongside their recorded % of degradation.
- protocolSummary: Stability in Hepes buffer 0.5 M pH 7.5 (UV spectrophotometry)
- Type: physicochemical
- experimentalContext: 24 hrs; HEPES 0.5 M pH 7.5, 37°, 50 μM (SQE94 and 79 at 25 μM)
propertyName: % of degradation (%)

>  <compound>
CC(=O)c1ccc(O)c2nc(/C=C/c3cc(O)c(O)c([N+](=O)[O-])c3)ccc12

>  <censoringSign>
=

>  <numericValue>
42.9

$$$$
>  <compound>
CC(=O)c1ccc(O)c2nc(/C=C/c3cc(O)c(O)c(O)c3)ccc12

>  <censoringSign>
=

>  <numericValue>
18.7

$$$$
>  <compound>
COc1cc(/C=C/c2ccc3ccc(C(=O)O)c(O)c3n2)cc(O)c1O [FZ41, reference compound]

>  <censoringSign>
=

>  <numericValue>
64.6

$$$$
>  <compound>
CC(=O)c1ccc(O)c2nc(/C=C/c3ccc(O)c(C(=O)O)c3)ccc12

>  <censoringSign>
<

>  <numericValue>
5

$$$$
>  <compound>
COc1cc(/C=C/c2ccc3c(C(C)=O)ccc(O)c3n2)cc([N+](=O)[O-])c1O

>  <censoringSign>
=

>  <numericValue>
30.8

$$$$
>  <compound>
CC(=O)c1ccc(O)c2nc(/C=C/c3cc(O)c(O)cc3O)ccc12

>  <censoringSign>
=

>  <numericValue>
24.1

$$$$
>  <compound>
CC(=O)c1ccc(O)c2nc(/C=C/c3cc(O)c(O)c(Cl)c3)ccc12

>  <censoringSign>
=

>  <numericValue>
22.4

$$$$
>  <compound>
CC(=O)c1ccc(O)c2nc(/C=C/c3ccc(C(=O)O)cc3[N+](=O)[O-])ccc12

>  <censoringSign>
<

>  <numericValue>
5

$$$$

###

Items are presented alongside their recorded % of degradation.
- protocolSummary: Stability in Hepes buffer 0.5 M pH 7.5 (UV spectrophotometry)
- Assay type: physicochemical
- experimentalContext: 4 hrs; HEPES 0.5 M pH 7.5, 37°, 50 μM (SQE94 and 79 at 25 μM)
propertyName: % of degradation

>  <compound>
CC(=O)c1ccc(O)c2nc(/C=C/c3cc(O)c(O)c(O)c3)ccc12

>  <propertyName>
% of degradation

>  <result>
17.5%

$$$$
>  <compound>
CC(=O)c1ccc(O)c2nc(/C=C/c3cc(O)c(O)c(Cl)c3)ccc12

>  <propertyName>
% of degradation

>  <result>
12.5%

$$$$
>  <compound>
CC(=O)c1ccc(O)c2nc(/C=C/c3cc(O)c(O)c([N+](=O)[O-])c3)ccc12

>  <propertyName>
% of degradation

>  <result>
26.9%

$$$$
>  <compound>
COc1cc(/C=C/c2ccc3c(C(C)=O)ccc(O)c3n2)cc([N+](=O)[O-])c1O

>  <propertyName>
% of degradation

>  <result>
8.2%

$$$$
>  <compound>
CC(=O)c1ccc(O)c2nc(/C=C/c3cc(O)c(O)cc3O)ccc12

>  <propertyName>
% of degradation

>  <result>
26.1%

$$$$
>  <compound>
CC(=O)c1ccc(O)c2nc(/C=C/c3ccc(C(=O)O)cc3[N+](=O)[O-])ccc12

>  <propertyName>
% of degradation

>  <result>
<5%

$$$$
>  <compound>
COc1cc(/C=C/c2ccc3ccc(C(=O)O)c(O)c3n2)cc(O)c1O [FZ41, reference compound]

>  <propertyName>
% of degradation

>  <result>
59.6%

$$$$
>  <compound>
CC(=O)c1ccc(O)c2nc(/C=C/c3ccc(O)c(C(=O)O)c3)ccc12

>  <propertyName>
% of degradation

>  <result>
<5%

$$$$

###

- Tested on: wild type HIV-1 virus (NL 4.3 strains)
- protocolSummary: Antiviral activity assay CEM cells (p24 ELISA)
- Assay type: cell-based
- experimentalContext: Human immunodeficiency virus 1, CCRF-CEM; CEM cells, HIV-1 NL 4.3, 48 hours, p24; read-out: CEM
pEC50: −log10 of the molar value.

>  <molecule>
CC(=O)c1ccc(O)c2nc(/C=C/c3cc(O)c(O)c(O)c3)ccc12 [SQE75]

>  <experimentalSystem>
wild type HIV-1 virus (NL 4.3 strains)

>  <pEC50>
4.61

$$$$
>  <molecule>
CC(=O)c1ccc(O)c2nc(/C=C/c3cc(O)c(O)cc3O)ccc12 [SQE74]

>  <experimentalSystem>
wild type HIV-1 virus (NL 4.3 strains)

>  <pEC50>
6.46

$$$$
>  <molecule>
CC(=O)c1ccc(O)c2nc(/C=C/c3cc(O)c(O)c([N+](=O)[O-])c3)ccc12 [SQE79]

>  <experimentalSystem>
wild type HIV-1 virus (NL 4.3 strains)

>  <pEC50>
6.40

$$$$
>  <molecule>
COc1cc(/C=C/c2ccc3ccc(C(=O)O)c(O)c3n2)cc(O)c1O [FZ41, reference compound]

>  <experimentalSystem>
wild type HIV-1 virus (NL 4.3 strains)

>  <pEC50>
4.60

$$$$

###

- protocolSummary: in vitro
- Assay type: cell-based
- experimentalContext: human
Items are presented alongside their recorded IC50 at 2 days.

>  <compound>
COc1cc(/C=C/c2ccc3ccc(C(=O)O)c(O)c3n2)cc(O)c1O [FZ41, reference compound]

>  <unitsText>
µM

>  <censoringSign>
>

>  <IC50 at 2 days>
100

$$$$
>  <compound>
CC(=O)c1ccc(O)c2nc(/C=C/c3cc(O)c(O)c(Cl)c3)ccc12

>  <unitsText>
µM

>  <censoringSign>
=

>  <IC50 at 2 days>
15

$$$$
>  <compound>
CC(=O)c1ccc(O)c2nc(/C=C/c3ccc(C(=O)O)cc3[N+](=O)[O-])ccc12

>  <unitsText>
µM

>  <censoringSign>
>

>  <IC50 at 2 days>
100

$$$$
>  <compound>
CC(=O)c1ccc(O)c2nc(/C=C/c3ccc(O)c(C(=O)O)c3)ccc12

>  <unitsText>
µM

>  <censoringSign>
=

>  <IC50 at 2 days>
12.6

$$$$
>  <compound>
CC(=O)c1ccc(O)c2nc(/C=C/c3cc(O)c(O)cc3O)ccc12

>  <unitsText>
µM

>  <censoringSign>
=

>  <IC50 at 2 days>
11.7

$$$$
>  <compound>
COc1cc(/C=C/c2ccc3c(C(C)=O)ccc(O)c3n2)cc([N+](=O)[O-])c1O

>  <unitsText>
µM

>  <censoringSign>
=

>  <IC50 at 2 days>
56

$$$$
>  <compound>
CC(=O)c1ccc(O)c2nc(/C=C/c3cc(O)c(O)c([N+](=O)[O-])c3)ccc12

>  <unitsText>
µM

>  <censoringSign>
=

>  <IC50 at 2 days>
4.2

$$$$
>  <compound>
CC(=O)c1ccc(O)c2nc(/C=C/c3cc(O)c(O)c(O)c3)ccc12

>  <unitsText>
µM

>  <censoringSign>
>

>  <IC50 at 2 days>
100

$$$$

###

- protocolSummary: Stability in Hepes buffer 0.5 M pH 7.5 (UV spectrophotometry)
- Assay type: physicochemical
- experimentalContext: 2 hrs; HEPES 0.5 M pH 7.5, 37°, 50 μM (SQE94 and 79 at 25 μM)
propertyName: % of degradation (%)

>  <compound>
CC(=O)c1ccc(O)c2nc(/C=C/c3cc(O)c(O)c(O)c3)ccc12

>  <propertyName>
% of degradation

>  <censoringSign>
=

>  <numericValue>
15.7

$$$$
>  <compound>
CC(=O)c1ccc(O)c2nc(/C=C/c3cc(O)c(O)c([N+](=O)[O-])c3)ccc12

>  <propertyName>
% of degradation

>  <censoringSign>
=

>  <numericValue>
19.2

$$$$
>  <compound>
CC(=O)c1ccc(O)c2nc(/C=C/c3ccc(O)c(C(=O)O)c3)ccc12

>  <propertyName>
% of degradation

>  <censoringSign>
<

>  <numericValue>
5

$$$$
>  <compound>
CC(=O)c1ccc(O)c2nc(/C=C/c3cc(O)c(O)c(Cl)c3)ccc12

>  <propertyName>
% of degradation

>  <censoringSign>
=

>  <numericValue>
12.1

$$$$
>  <compound>
CC(=O)c1ccc(O)c2nc(/C=C/c3cc(O)c(O)cc3O)ccc12

>  <propertyName>
% of degradation

>  <censoringSign>
=

>  <numericValue>
17.2

$$$$
>  <compound>
CC(=O)c1ccc(O)c2nc(/C=C/c3ccc(C(=O)O)cc3[N+](=O)[O-])ccc12

>  <propertyName>
% of degradation

>  <censoringSign>
<

>  <numericValue>
5

$$$$
>  <compound>
COc1cc(/C=C/c2ccc3ccc(C(=O)O)c(O)c3n2)cc(O)c1O [FZ41, reference compound]

>  <propertyName>
% of degradation

>  <censoringSign>
=

>  <numericValue>
31.1

$$$$
>  <compound>
COc1cc(/C=C/c2ccc3c(C(C)=O)ccc(O)c3n2)cc([N+](=O)[O-])c1O

>  <propertyName>
% of degradation

>  <censoringSign>
<

>  <numericValue>
5

$$$$

meta.source: patent US20110224242A1
